Biological target: human recombinant HDAC6 (Homo sapiens, UniProt Q9UBN7)
Construct: purchased Calbiochem 382180
Sequence (Q9UBN7 1-1215): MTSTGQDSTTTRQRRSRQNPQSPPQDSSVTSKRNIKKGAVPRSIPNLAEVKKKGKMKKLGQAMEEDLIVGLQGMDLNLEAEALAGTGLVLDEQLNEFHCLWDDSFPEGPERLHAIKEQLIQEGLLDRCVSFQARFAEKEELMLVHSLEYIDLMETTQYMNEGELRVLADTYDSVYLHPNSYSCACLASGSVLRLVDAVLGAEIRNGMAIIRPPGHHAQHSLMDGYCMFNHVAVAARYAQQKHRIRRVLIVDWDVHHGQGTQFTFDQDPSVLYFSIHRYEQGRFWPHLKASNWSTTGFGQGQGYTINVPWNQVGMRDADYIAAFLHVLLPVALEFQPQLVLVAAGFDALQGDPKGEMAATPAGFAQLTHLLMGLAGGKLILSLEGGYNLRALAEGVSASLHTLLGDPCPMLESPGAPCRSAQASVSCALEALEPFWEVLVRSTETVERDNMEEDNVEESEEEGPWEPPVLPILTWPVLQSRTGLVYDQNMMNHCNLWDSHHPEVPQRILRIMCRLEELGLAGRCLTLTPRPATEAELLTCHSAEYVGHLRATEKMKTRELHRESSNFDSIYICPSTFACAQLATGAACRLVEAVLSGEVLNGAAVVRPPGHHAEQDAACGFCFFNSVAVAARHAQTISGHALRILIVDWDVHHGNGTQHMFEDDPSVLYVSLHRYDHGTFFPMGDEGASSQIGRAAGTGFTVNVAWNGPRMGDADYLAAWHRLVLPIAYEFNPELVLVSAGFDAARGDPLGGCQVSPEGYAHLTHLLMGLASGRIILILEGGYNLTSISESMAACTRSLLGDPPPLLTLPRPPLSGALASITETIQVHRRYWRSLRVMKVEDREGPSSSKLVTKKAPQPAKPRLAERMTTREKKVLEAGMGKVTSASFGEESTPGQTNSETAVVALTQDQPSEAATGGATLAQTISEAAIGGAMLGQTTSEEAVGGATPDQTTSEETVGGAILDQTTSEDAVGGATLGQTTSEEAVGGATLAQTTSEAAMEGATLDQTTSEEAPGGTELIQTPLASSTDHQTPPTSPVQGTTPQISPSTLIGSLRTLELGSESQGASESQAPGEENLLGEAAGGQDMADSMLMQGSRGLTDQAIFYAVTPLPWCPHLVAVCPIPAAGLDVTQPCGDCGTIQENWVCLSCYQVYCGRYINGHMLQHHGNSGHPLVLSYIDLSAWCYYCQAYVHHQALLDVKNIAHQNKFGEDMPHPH
Assay: HDAC6 enzyme activity inhibition assay (HDAC Fluorimetric Drug Discovery Kit)
Format: biochemical
Conditions: HDAC1 vs HDAC6
Consider the following compounds; for each one, report its HDAC6 selectivity (fold).
# value in fold; strip the unit string

Data request: What value of measured HDAC6 selectivity (fold) is listed for CCS(=O)(=O)N(Cc1ccc(-c2nnc(C(F)F)o2)cn1)c1ccc(F)c(Cl)c1 ?
Data returned: 14286

Data request: What value of measured HDAC6 selectivity (fold) is listed for O=S(=O)(CCCO)N(Cc1ccc(-c2nnc(C(F)F)o2)cc1)c1ccccc1 ?
Data returned: 837

Data request: What value of measured HDAC6 selectivity (fold) is listed for O=S(=O)(CCN1CC[C@H](F)C1)N(Cc1ccc(-c2nnc(C(F)F)o2)cc1)c1ccccc1 ?
Data returned: 1466

Data request: What value of measured HDAC6 selectivity (fold) is listed for O=S(=O)(CCN1CCC(F)(F)C1)N(Cc1ccc(-c2nnc(C(F)F)o2)cc1)c1ccccc1 ?
Data returned: 1326

Data request: What value of measured HDAC6 selectivity (fold) is listed for Cc1cccc(N(Cc2ccc(-c3nnc(C(F)F)o3)cn2)S(=O)(=O)C2CCN(C3CN(C(=O)CO)C3)CC2)c1 ?
Data returned: 2236

Data request: What value of measured HDAC6 selectivity (fold) is listed for Cc1cccc(N(Cc2ccc(-c3nnc(C(F)F)o3)cc2)S(=O)(=O)C2CCN(C3CC4CCC3C4)CC2)c1 (stereo not drawn) ?
Data returned: 198

Data request: What value of measured HDAC6 selectivity (fold) is listed for Cc1cccc(N(Cc2ccc(-c3nnc(C(F)F)o3)cc2)S(=O)(=O)C2CCN([C@H]3CC[C@@H](F)CC3)CC2)c1 ?
Data returned: 289

Data request: What value of measured HDAC6 selectivity (fold) is listed for O=S(=O)(CCN1CCCN(Cc2ccccc2)CC1)N(Cc1ccc(-c2nnc(C(F)F)o2)cc1)c1ccccc1 ?
Data returned: 508

Data request: What value of measured HDAC6 selectivity (fold) is listed for O=S(=O)(CCN1CCN(CCO)CC1)N(Cc1ccc(-c2nnc(C(F)F)o2)cc1)c1ccccc1 ?
Data returned: 879

Data request: What value of measured HDAC6 selectivity (fold) is listed for CCS(=O)(=O)N(Cc1ccc(-c2nnc(C(F)F)o2)cn1)c1ccc(F)c(F)c1 ?
Data returned: 2635

Data request: What value of measured HDAC6 selectivity (fold) is listed for CS(=O)(=O)N(Cc1ccc(-c2nnc(C(F)F)o2)cn1)CC12CC3CC(CC(C3)C1)C2 ?
Data returned: 900

Data request: What value of measured HDAC6 selectivity (fold) is listed for Cc1cccc(N(Cc2ccc(-c3nnc(C(F)F)o3)cn2)S(=O)(=O)C2CCN(C3CCC(F)(F)CC3)CC2)c1 ?
Data returned: 741

Data request: What value of measured HDAC6 selectivity (fold) is listed for COC(=O)C1CN(CCS(=O)(=O)N(Cc2ccc(-c3nnc(C(F)F)o3)cc2)c2ccccc2)C1 ?
Data returned: 1652

Data request: What value of measured HDAC6 selectivity (fold) is listed for O=S(=O)(C1CCN(C2COC2)CC1)N(Cc1ccc(-c2nnc(C(F)F)o2)cn1)c1ccc(F)c(Cl)c1 ?
Data returned: 3779

Data request: What value of measured HDAC6 selectivity (fold) is listed for O=S(=O)(CCCN1CCCC1)N(Cc1ccc(-c2nnc(C(F)F)o2)cn1)c1ccccc1 ?
Data returned: 578

* * *

Molecular target: human recombinant HDAC6 (Homo sapiens, UniProt Q9UBN7)
Construct: purchased Calbiochem 382180
Sequence (Q9UBN7 1-1215): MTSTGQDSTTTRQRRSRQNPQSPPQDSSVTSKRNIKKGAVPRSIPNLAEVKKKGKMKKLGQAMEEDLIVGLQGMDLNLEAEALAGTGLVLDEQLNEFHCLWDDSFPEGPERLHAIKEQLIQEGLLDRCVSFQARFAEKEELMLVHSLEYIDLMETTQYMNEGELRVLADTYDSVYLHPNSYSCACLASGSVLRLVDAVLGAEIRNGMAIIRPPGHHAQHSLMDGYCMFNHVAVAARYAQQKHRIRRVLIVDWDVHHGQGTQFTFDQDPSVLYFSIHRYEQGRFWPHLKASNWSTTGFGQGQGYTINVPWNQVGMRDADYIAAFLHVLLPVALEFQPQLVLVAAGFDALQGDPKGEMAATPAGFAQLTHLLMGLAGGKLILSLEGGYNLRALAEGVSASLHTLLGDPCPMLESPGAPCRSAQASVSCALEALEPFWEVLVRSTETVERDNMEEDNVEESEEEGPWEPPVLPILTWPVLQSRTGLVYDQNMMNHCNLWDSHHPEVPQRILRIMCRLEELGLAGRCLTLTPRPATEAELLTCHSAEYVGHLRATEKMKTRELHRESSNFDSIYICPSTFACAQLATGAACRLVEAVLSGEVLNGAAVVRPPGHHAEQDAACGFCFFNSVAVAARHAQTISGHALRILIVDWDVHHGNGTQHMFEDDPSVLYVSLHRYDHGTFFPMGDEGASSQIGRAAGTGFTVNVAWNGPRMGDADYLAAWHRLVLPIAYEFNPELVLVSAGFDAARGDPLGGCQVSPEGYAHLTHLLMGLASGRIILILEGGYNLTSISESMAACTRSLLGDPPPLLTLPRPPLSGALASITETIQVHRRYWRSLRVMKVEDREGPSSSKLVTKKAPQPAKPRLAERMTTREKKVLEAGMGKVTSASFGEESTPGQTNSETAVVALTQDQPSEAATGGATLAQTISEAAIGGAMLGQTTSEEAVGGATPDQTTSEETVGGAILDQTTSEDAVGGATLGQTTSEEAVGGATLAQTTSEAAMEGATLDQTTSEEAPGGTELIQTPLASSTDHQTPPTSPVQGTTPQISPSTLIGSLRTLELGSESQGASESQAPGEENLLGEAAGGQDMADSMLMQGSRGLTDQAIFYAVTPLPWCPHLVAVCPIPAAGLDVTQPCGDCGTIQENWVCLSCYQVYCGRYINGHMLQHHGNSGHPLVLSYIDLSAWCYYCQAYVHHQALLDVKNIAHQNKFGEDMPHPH
Assay: HDAC6 enzyme activity inhibition assay (HDAC Fluorimetric Drug Discovery Kit)
Type: biochemical
Details: same protocol as the HDAC1 enzyme activity test
Consider the following compounds; for each one, report its IC50.
# value in nM; strip the unit string

Data request: What value of measured IC50 is listed for O=S(=O)(CCCN1CCOCC1)N(Cc1ccc(-c2nnc(C(F)F)o2)cc1)c1ccc(F)c(Cl)c1 ?
Data returned: 78.6

Data request: What value of measured IC50 is listed for O=S(=O)(CCN1CCN(C2COC2)CC1)N(Cc1ccc(-c2nnc(C(F)F)o2)cc1F)c1ccc(F)c(Cl)c1 ?
Data returned: 23

Data request: What value of measured IC50 is listed for O=S(=O)(CCN1CCN(c2ccccc2)CC1)N(Cc1ccc(-c2nnc(C(F)F)o2)cc1)c1ccccc1 ?
Data returned: 313

Data request: What value of measured IC50 is listed for O=S(=O)(CCN1CC[C@H](F)C1)N(Cc1ccc(-c2nnc(C(F)F)o2)cc1)c1ccccc1 ?
Data returned: 68.2

Data request: What value of measured IC50 is listed for CCS(=O)(=O)N(Cc1ccc(-c2nnc(C(F)F)o2)cn1)c1cccc2c1CN(C)C2 ?
Data returned: 378

Data request: What value of measured IC50 is listed for O=S(=O)(CCN1CC[C@H](O)C1)N(Cc1ccc(-c2nnc(C(F)F)o2)cc1)c1ccccc1 ?
Data returned: 44.4

Data request: What value of measured IC50 is listed for CS(=O)(=O)N(Cc1ccc(-c2nnc(C(F)(F)F)o2)cc1F)c1ccc(F)cc1 ?
Data returned: 73

Data request: What value of measured IC50 is listed for CS(=O)(=O)N(Cc1ccc(-c2nnc(C(F)F)o2)cc1F)c1ccc(Cl)cc1 ?
Data returned: 44

Data request: What value of measured IC50 is listed for O=S(=O)(CCN1CC[C@@H](CO)C1)N(Cc1ccc(-c2nnc(C(F)F)o2)cc1)c1ccccc1 ?
Data returned: 33.1

Data request: What value of measured IC50 is listed for Cc1cccc(N(Cc2ccc(-c3nnc(C(F)F)o3)cc2)S(=O)(=O)C2CCN([C@H]3CC[C@H](C(F)(F)F)CC3)CC2)c1 ?
Data returned: 988

Data request: What value of measured IC50 is listed for O=S(=O)(C1CCN(C2CCC2)CC1)N(Cc1ccc(-c2nnc(C(F)F)o2)cc1)c1ccccc1 ?
Data returned: 42

Data request: What value of measured IC50 is listed for O=S(=O)(CCn1cncn1)N(Cc1ccc(-c2nnc(C(F)F)o2)cc1)c1ccccc1 ?
Data returned: 30.1

Data request: What value of measured IC50 is listed for Cc1cccc(N(Cc2ccc(-c3nnc(C(F)F)o3)cn2)S(=O)(=O)C2CCN(C3CC4CCC3C4)CC2)c1 (stereo not drawn) ?
Data returned: 92.1

Data request: What value of measured IC50 is listed for O=S(=O)(c1cccnc1)N(Cc1ccc(-c2nnc(C(F)(F)F)o2)cc1)c1ccccc1 ?
Data returned: 135

Data request: What value of measured IC50 is listed for COc1ccc(S(=O)(=O)NCc2ccc(-c3nnc(C(F)(F)F)o3)cc2)cc1 ?
Data returned: 3470
